IC50 by entry:
Molecular target: T1, human IL-4 (human, UniProt P05112 25-153, biotinylated in the RBA and on the Biacore chip)
T1 sequence (looked up): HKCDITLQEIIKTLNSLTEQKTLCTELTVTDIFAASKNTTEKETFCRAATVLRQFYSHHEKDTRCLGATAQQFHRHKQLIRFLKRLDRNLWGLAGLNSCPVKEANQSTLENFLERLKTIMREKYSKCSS
Assay: DOM9 RBA (IL-4 RBA), binder titrated
ASSAY_READOUT: IC50

BINDER	ASSAY_READOUT	RESULT
DOM10-208-TVAAPS-DOM9-155-78 (bispecific antibody, from a related filing, part only) DIQMTQSPSSLSASVGDRVTITCRASSPITDGLAWYQQKPGKAPKLLIDTGSRLQSGVPSRFSGSGSGTDFTLTISSLQPEDFATYYCRQGAMGSYTFGQGTKVEIKRTVAAPSDIQMTQSPSSLSASVGDRVTITCRASRHIGDWLHWYQQKPGKAPKLLIAWASTLDSGVPSRFSGSGSGTDFTLTISSLQPEDFATYYCLQEGWGPPTFGQGTKVEIKR	IC50	8.18 nM
DOM10-215 TVAAPS-DOM9-155-78 (bispecific antibody, from a related filing, part only) DIQMTQSPSSLSASVGDRVTITCRASQNIFADLNWYQQKPGKAPKLLIYMGSRLQSGVPSRFSGSGSGTDFTLTISSLQPEDFATYYCQQDYKFPLTFGQGTKVEIKRTVAAPSDIQMTQSPSSLSASVGDRVTITCRASRHIGDWLHWYQQKPGKAPKLLIAWASTLDSGVPSRFSGSGSGTDFTLTISSLQPEDFATYYCLQEGWGPPTFGQGTKVEIKR	IC50	6.65 nM
DOM10-213 TVAAPS-DOM9-155-78 (bispecific antibody, from a related filing, part only) DIQMTQSPSSLSASVGDRVTITCRASQAIPWGLNWYQQKPGKAPKLLIYDVSSLQSGVPSRFSGSGSGTDFTLTISSLQPEDFATYYCQQDIHIPMTFGQGTKVEIKRTVAAPSDIQMTQSPSSLSASVGDRVTITCRASRHIGDWLHWYQQKPGKAPKLLIAWASTLDSGVPSRFSGSGSGTDFTLTISSLQPEDFATYYCLQEGWGPPTFGQGTKVEIKR	IC50	6.91 nM
DOM10-224 TVAAPS-DOM9-155-78 (bispecific antibody, from a related filing, part only) DIQMTQSPSSLSASVGDRVTITCRASPNIAVDLAWYQQKPGKAPKLLIRGVSRLQSGVPSRFSGSGSGTDFTLTISSLQPEDFATYYCRQGAMGSYTFGQGTKVEIKRTVAAPSDIQMTQSPSSLSASVGDRVTITCRASRHIGDWLHWYQQKPGKAPKLLIAWASTLDSGVPSRFSGSGSGTDFTLTISSLQPEDFATYYCLQEGWGPPTFGQGTKVEIKR	IC50	12.5 nM

Origin of the recorded values: patent US20110159003A1
